- METHOD SUMMARY: inhibitors of TNFa-induced NFkB p65 translocation, primary screen, imaging, HUVEC, MLSMR starter and 10KST1 sets (AID 438);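 also: compound added about 3h40 before a 20 min TNFalpha stimulation; signal is the nuclear over cytoplasmic p65 intensity ratio per well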
- TEST PARAMETERS: HUVEC TNFa-induced p65 nuclear translocation; at 2 µM, stronger effect = higher value, 0% TNFa-plus-vehicle, 100% no-TNFa wells
MEASURED PROPERTY: inhibition (%)

                                    compound  readout_value
 0  CC1(C)Cc2c(C#N)c(SCc3nc4ccccc4[nH]3)nc(N3CCOCC3)c2CO1           -6.9
 1          CCCn1c(-c2ccc(F)cc2)cnc1SCC(=O)O            9.9
 2      O=C(COC(=O)c1cncc(Br)c1)NCCC1=CCCCC1           -7.6
 3  O=S(=O)(c1ccccc1)N(CC(O)CN1CCCCC1)c1ccccc1 (stereo unspecified)           -4.6
 4  Cc1ccc(N2C(=O)CC3(CC4C=CC3C4)C2=O)cc1 (stereo unspecified)            6.2
 5                O=C(Cc1cccs1)NCc1ccc(F)cc1            2.4
 6  Cc1nc2sc(C(c3cccs3)N3CC(C)CC(C)C3)c(O)n2n1 (stereo unspecified)            3.9
 7  CCOC(=O)c1[nH]c(C)c(C(=O)N2CCN(C(=O)c3ccco3)CC2)c1C          -13.4
 8  O=C(CSc1nnc(CNC(=O)c2c(F)cccc2Cl)o1)c1ccccc1          -19.6
 9  COc1ccc(Cn2c(-c3ccco3)nc3oc4ccccc4c(=O)c3c2=O)cc1           -7.6
10    Cc1csc2ncc(C(=O)N3CCc4ccccc43)c(=O)n12            5.3
11    COc1ccc(CN(C#N)c2nc(SC)nc(N(C)C)n2)cc1           -0.6
12  Fc1ccc(-n2c(Cc3ccccc3)nnc2SCc2nc(-c3cccs3)no2)cc1            2.5
13        N#Cc1cc2c(nc1SCC(=O)N1CCCCC1)CCCC2            5.5
14  Cc1cccc(CN2CCC(CNC(=O)C3CCCN(S(=O)(=O)c4cnc[nH]4)C3)CC2)c1 (stereo unspecified)          -12.2
15         c1ccc(C2(Cn3ccc4ccccc43)OCCO2)cc1            -13
16  COc1cc(OC)c(C2C(C#N)=C(N)OC3=C2C(=O)CC(C)(C)C3)cc1OC (stereo unspecified)           -2.7
17  COC(=O)c1ccccc1NC(=O)C1CC=CCC1C(=O)O (stereo unspecified)            4.2
18  C(=C\c1ccccc1)/CN1CCN(Cc2ccc3c(c2)OCCO3)CC1            0.5
19       Cc1csc(NC(=O)CCn2c(=O)oc3ccccc32)n1          -20.3
20  Cc1ccc(-c2noc(CCC(=O)N3CCN(c4cccc(C(F)(F)F)c4)CC3)n2)cc1            7.6
21              CCSc1nnc(NC(=O)NCC(F)(F)F)s1           -4.9
22  O=C(CN1C(=O)c2ccccc2S1(=O)=O)NCCSCc1ccco1           -5.5
23  CCOC(=O)N1CCN(C(=O)Cn2ncn3nc(-c4cccs4)cc3c2=O)CC1           -0.8
24  CCOc1ccc(Cn2nnc(C(=O)NCc3ccc(OC)cc3)c2N)cc1           -1.3
25  COc1cccc(-c2nc(CS(=O)(=O)CC(=O)N3CCc4ccccc4C3)c(C)o2)c1          -17.7
26  CCCCOC(=O)CSC1=C(C#N)C(c2ccc3c(c2)OCO3)CC(=O)N1 (stereo unspecified)          -12.5
27  COc1ccc(CNc2oc(COc3ccc(Cl)cc3)nc2C#N)cc1            5.8
28      COc1ccc(Nc2nnc(C)c3ccccc23)cc1C(N)=O           -2.5
29  COc1ccc(C2=NOC(C(=O)NC3CCCCC3)C2)cc1OC (stereo unspecified)          -14.3
30  COc1ccccc1S(=O)(=O)Cc1ccc(C(=O)NCCN2CCCCCC2)o1           13.4
31  O=C1c2ccccc2C(Nc2ccc(-c3nc4ccccc4[nH]3)cc2)N1Cc1ccco1 (stereo unspecified)           -6.8
32         CCCC(=O)Nc1nn(CCC)c2nc3ccccc3cc12           -8.1
33     O=C(CCN1CCc2ccccc2C1)Nc1ccc2c(c1)OCO2            2.9
34     FC(F)(F)c1cccc(N2CCN(Cc3cccnc3)CC2)c1           -3.8
35               O=C(NCc1ccccn1)c1ccc(=O)oc1            8.2
36  COc1ccc(N2CCN(c3oc(COc4ccc(Cl)cc4)nc3C#N)CC2)cc1           -3.3
37  CCOc1ccc(OCC)c(NC(=O)CCCN2C(=O)c3cccnc3C2=O)c1            5.3
38  Cc1ccc(NC(=O)CSc2nnc(-c3ccco3)c(-c3ccco3)n2)cc1           -7.7
39  COc1cccc(-n2c(SC3CCOC3=O)nc3ccccc3c2=O)c1 (stereo unspecified)            2.4
40              CCOC(=O)Cn1nc(C)c2ccccc2c1=O           -1.2
41            Cc1c(C)[n+](=O)c2c(n1[O-])CCC2             -2
42  O=C(Cn1cnc2c(nnn2Cc2ccccc2)c1=O)c1ccc(Cl)cc1            8.2
43  Cc1cc(CN2CCN(CCC#N)CC2)c(O)c(C2(C)CCCCC2)c1          -12.3
44       O=C(c1cnc2n(c1=O)CCS2)N1CCc2ccccc21            9.1
45  O=C(c1ccc2c3c(cccc13)C(=O)N(O)C2=O)N1CCCCC1           -6.7
